Tested on: L6
assay.info: Cytotoxicity against rat L6 cells
Assay type: cell-based
pIC50: −log10 of the molar value.
measured.endpoint: pIC50

mol.smiles: CC(C)NC(=N)c1cccc(OCc2ccccc2COc2cccc(C(=N)NC(C)C)c2)c1
pIC50: < 3.79

mol.smiles: CONC(=N)c1ccc(OCc2cccc(COc3ccc(C(=N)NOC)cc3)c2)cc1
pIC50: < 4.47

mol.smiles: CC(C)NC(=N)c1ccc(OCc2ccc(COc3ccc(C(=N)NC(C)C)cc3)cc2)cc1
pIC50: < 3.78

In the following, a different compound is considered.
Which pIC50 reading was recorded for the compound CC(C)NC(=N)c1ccc(OCc2cccc(COc3ccc(C(=N)NC(C)C)cc3)c2)cc1 ?
< 3.77
